Tested on: SK-MEL-28 melanoma
measurement-notes: NCI-60 one-dose screen, 48 h
conditions: 10 µM unless noted
Compounds without any hit were thinned out: in the full panel of roughly 83,000, 20% have a hit. The source made the active and inactive calls. The calls were made as follows: active = growth percent below 10; inactive = the rest.
Mark one answer only. Choices: class 1 (active), class 0 (inactive)

Worked examples, 3 compounds total:
Task: How was CC1=C(CCC(C)NCc2ccc(OCCCN3CCCCC3)cc2)C(C)(C)CCC1 (stereo not given) classified in this test?
Output: class 1

Task: How was N#Cc1c(-c2ccccc2)nc(SCC(O)CN2CCOCC2)nc1N1CCOCC1 (stereo not given) classified in this test?
Output: class 0

Task: How was CCN1C(=O)N(CC)C2C1N=C(SCc1ccc(Cl)cc1)N2/N=C/C=C/c1ccccc1OC (stereo not given) classified in this test?
Output: class 0

Turning to the following compound.
Task: How was CCNc1nc(O)c(/C=C2\C=Nc3ncccc32)s1 classified in this test?
Output: class 1

====

Tested on: ACHN renal
measurement-notes: NCI-60 one-dose screen, 48 h
conditions: 10 µM unless noted
The panel holds about 83,000 compounds, 20% with a hit somewhere; the sample as a whole holds those more often. Active and inactive are the calls of the source. Rule for the calls: active = growth percent below 10; inactive = the rest.
Mark one answer only. Choices: 1 (yes) (active), 0 (no) (inactive)

Task: How was COc1cccc(/C=N/NC(=O)c2ccccc2N2CCCC2)c1O classified in this test?
Output: 0 (no)

Task: How was O=c1ccc(=O)n(-c2nc(-c3ccc([N+](=O)[O-])cc3)cs2)[nH]1 classified in this test?
Output: 0 (no)

Task: How was O=C(Nc1cc(Cl)ccc1O)c1cccc(Nc2ccnc(C(F)(F)F)c2)c1 classified in this test?
Output: 0 (no)

Task: How was COc1cc(-c2nc3sccn3c2-c2ccnc(NCCNS(=O)(=O)c3ccc(Cl)cc3)n2)ccc1F classified in this test?
Output: 0 (no)

Task: How was CC(C)=CCNc1ncnc2c1ncn2C1OC(CO)C(O)C1O (centres undefined) classified in this test?
Output: 1 (yes)

***
Task: How was Cc1ccc(C)c2c(C)c(C(=O)Nc3cccc(-n4cccn4)c3)oc12 classified in this test?
Output: 0 (no)

Task: How was COc1ccc(/C(C)=C(/c2ccc(OCCCN(C)C)cc2)c2ccc(OC(=O)c3ccccc3)cc2)cc1 classified in this test?
Output: 0 (no)

Task: How was CC1C=CC(OC(=O)C(C)(O)CCC(O)(C(=O)OC2CC(O)C(C(C)C)CC2(C)O)C(C)C)(C(C)C)CC1 (centres undefined) classified in this test?
Output: 1 (yes)

Task: How was COc1ccc2nc(Cl)c(/C=C3\CC(c4ccccc4)=NN(c4ccccc4)C3=O)cc2c1 classified in this test?
Output: 0 (no)

====

Test system: MALME-3M melanoma
measurement-notes: NCI-60 one-dose screen, 48 h (100 = growth as untreated, 0 = no growth, -100 = all killed)
conditions: 10 µM unless noted
Compounds without any hit were thinned out: in the full panel of roughly 83,000, 20% have a hit.
Kindly supply the reported growth values for the records listed here.
One number for each entry, in %.

Task: Give growth for NC(=O)c1c(NC(=O)c2cccc(C(F)(F)F)c2)sc2c1CCC(=O)C2
Output: -41

Task: Give growth for COc1cccc(CNc2c3ccccc3nc3ccccc23)c1
Output: 44

Task: Give growth for Cc1cn(-c2cc(NC(=O)c3cncc(C#Cc4c(N)ncc5ccc(F)cc45)c3)cc(C(F)(F)F)c2)cn1
Output: 21.5

Task: Give growth for Cn1c2c(c3ccc(Cl)c(Cl)c31)C(C#N)C(C)(C)NC2=O (stereo not given)
Output: 90.4

Task: Give growth for CN1CCN(CCOc2ccc(-c3cnc4c(-c5ccc(F)cc5)cnn4c3)cc2)CC1
Output: 53.5

Provide the reported growth of each entry below, same order.
1. CCSc1oc(C)nc1[P+](c1ccccc1)(c1ccccc1)c1ccccc1
2. C/C(=N\O)c1ccc(NC(=O)CSc2nnc(-c3cc(-c4ccc(S(C)(=O)=O)cc4)nc4ccccc34)n2-c2ccccc2)cc1
3. O=C(CCCCCCN1CC(=O)N2[C@H](c3ccc(Cl)cc3)c3[nH]c4ccccc4c3C[C@@H]2C1=O)NO
4. O=C1/C(=C\c2cccc3nccnc23)SC(=S)N1CCc1ccc(O)cc1
5. O=C1C(Nc2ccccn2)=C(I)C(=O)c2ncccc21

Output:
1: 31.1; 2: 94.4; 3: 23; 4: 87.3; 5: -99.6

Just for reference, PubChem BioAssay (NCI) is where these values come from.
